The values you see were collected from paper PMC4774972.

# Test system: K. pneumoniae CI Koprana 100650661:1, PmxR
# settings: MIC K. pneumoniae CI Koprana 100650661:1, PmxR (µg/mL)
Numbered stars: 1 amine (or outer) side, 2 acyl side, 3 side chain; on linkers, the order of the positions; unused ones are H or OH. Bridge positions count the residues as written; N and C are the ends. Square brackets hold non-standard residues; d marks the D form. Peptide text beside a SMILES is read from it. * marks the point of attachment. Phe(4-NH2) = Nc1ccc(C[C@H](N)C(=O)O)cc1; Octanoyl(6-Me) = CCC(C)CCCCC(=O)*; NH(2-ClPh) = Clc1ccccc1N*; dDab = NCC[C@@H](N)C(=O)O; Octanoyl = CCCCCCCC(=O)*; Dab = NCC[C@H](N)C(=O)O; CO = O=C([*:1])[*:2]
property-measured: MIC

{"compound": "CCC(C)CCCCC(=O)N[C@@H](CCN)C(=O)N[C@H](C(=O)N[C@@H](CCN)C(=O)N[C@H]1CCNC(=O)[C@H]([C@@H](C)O)NC(=O)[C@H](CCN)NC(=O)[C@H](CCN)NC(=O)[C@H](CC(C)C)NC(=O)[C@@H](CC(C)C)NC(=O)[C@H](CCN)NC1=O)[C@@H](C)O (stereo partly drawn) ({Octanoyl(6-Me)}-[Dab]T[Dab][Dab][Dab][dL]L[Dab][Dab]T; lactam 4-C)", "result": "> 128 µg/mL"}
{"compound": "CCCCCCCC(=O)N[C@@H](CCN)C(=O)N[C@H](C(=O)N[C@@H](CCN)C(=O)N[C@H]1CCNC(=O)[C@H]([C@@H](C)O)NC(=O)[C@H](CCN)NC(=O)[C@H](CCN)NC(=O)[C@H](CC(C)C)NC(=O)[C@@H](Cc2ccccc2)NC(=O)[C@H](CCNC(=O)[C@@H](N)CCCNC(=N)N)NC1=O)[C@@H](C)O [Compound 31] (Octanoyl-[Dab]T[Dab][Dab][Dab](Arg)[dF]L[Dab][Dab]T; lactam 4-C)", "result": "> 32 µg/mL"}
{"compound": "CC(C)C[C@@H]1NC(=O)[C@@H](Cc2ccccc2)NC(=O)[C@H](CCN)NC(=O)[C@@H](NC(=O)[C@@H](CCN)NC(=O)[C@@H](NC(=O)[C@H](CCN)NC(=O)Nc2ccccc2Cl)[C@@H](C)O)CCNC(=O)[C@H]([C@@H](C)O)NC(=O)[C@H](CCN)NC(=O)[C@H](CCN)NC1=O [Compound 16] ({NH(2-ClPh)-CO}-[Dab]T[dDab][Dab][Dab][dF]L[Dab][Dab]T; lactam 4-C)", "result": "> 32 µg/mL"}

The record that follows has no MIC shown yet.
Item CCCCCCCC(=O)N[C@@H](CCN)C(=O)N[C@H](C(=O)N[C@@H](CCN)C(=O)N[C@H]1CCNC(=O)[C@H]([C@@H](C)O)NC(=O)[C@H](CCN)NC(=O)[C@H](CCN)NC(=O)[C@H](CC(C)C)NC(=O)[C@@H](Cc2ccccc2)NC(=O)[C@H](Cc2ccc(N)cc2)NC1=O)[C@@H](C)O [Compound 34] (Octanoyl-[Dab]T[Dab][Dab][Phe(4-NH2)][dF]L[Dab][Dab]T; lactam 4-C) : provide MIC
> 32 µg/mL

----------
Catalogue of compounds with associated MIC S. aureus ATCC 25923, MSSA
# Test system: S. aureus ATCC 25923, MSSA
# test: microbe, parasite or virus in culture
# Format: cell-based, Staphylococcus aureus
# settings: ATCC 25923, 18 h
Bridge positions count the residues as written; N and C are the ends. Square brackets hold non-standard residues; d marks the D form. Peptide text beside a SMILES is read from it. * marks the point of attachment. dDab = NCC[C@@H](N)C(=O)O; Octanoyl = CCCCCCCC(=O)*; Dab = NCC[C@H](N)C(=O)O

Examples from the recorded data:
{"compound": "CCCCCCCC(=O)N[C@@H](CCN)C(=O)N[C@H](C(=O)NCC(=O)N[C@H]1CCNC(=O)[C@H]([C@@H](C)O)NC(=O)[C@H](CCN)NC(=O)[C@H](CCN)NC(=O)[C@H](CC(C)C)NC(=O)[C@@H](Cc2ccccc2)NC(=O)[C@H](CCN)NC1=O)[C@@H](C)O [Compound 38] (Octanoyl-[Dab]TG[Dab][Dab][dF]L[Dab][Dab]T; lactam 4-C)", "property-measured": "MIC S. aureus ATCC 25923, MSSA", "result": ">64 mg/L"}
{"compound": "CCCCCCCC(=O)N[C@H](CCN)C(=O)N[C@H](C(=O)NCC(=O)N[C@H]1CCNC(=O)[C@H]([C@@H](C)O)NC(=O)[C@H](CCN)NC(=O)[C@H](CCN)NC(=O)[C@H](CC(C)C)NC(=O)[C@@H](Cc2ccccc2)NC(=O)[C@H](CCN)NC1=O)[C@@H](C)O [Compound 40] (Octanoyl-[dDab]TG[Dab][Dab][dF]L[Dab][Dab]T; lactam 4-C)", "property-measured": "MIC S. aureus ATCC 25923, MSSA", "result": ">64 mg/L"}
{"compound": "CCCCCCCC(=O)N[C@H](C(=O)NCC(=O)N[C@H]1CCNC(=O)[C@H]([C@@H](C)O)NC(=O)[C@H](CCN)NC(=O)[C@H](CCN)NC(=O)[C@H](CC(C)C)NC(=O)[C@@H](Cc2ccccc2)NC(=O)[C@H](CCN)NC1=O)[C@@H](C)O [Compound 39] (Octanoyl-TG[Dab][Dab][dF]L[Dab][Dab]T; lactam 3-C)", "property-measured": "MIC S. aureus ATCC 25923, MSSA", "result": ">32 mg/L"}

The record that follows has no MIC S. aureus ATCC 25923, MSSA shown yet.
// fetch MIC S. aureus ATCC 25923, MSSA; item: CCCCCCCC(=O)N[C@@H](CCN)C(=O)N[C@H](C(=O)N[C@H](CCN)C(=O)N[C@H]1CCNC(=O)[C@H]([C@@H](C)O)NC(=O)[C@H](CCN)NC(=O)[C@H](CCN)NC(=O)[C@H](CC(C)C)NC(=O)[C@@H](Cc2ccccc2)NC(=O)[C@H](CCN)NC1=O)[C@@H](C)O [Compound 36] (Octanoyl-[Dab]T[dDab][Dab][Dab][dF]L[Dab][Dab]T; lactam 4-C) ; system: S. aureus ATCC 25923, MSSA
>32 mg/L

----------
# System: K. pneumoniae CI 138-16357-20362, PmxR
# test: microbe, parasite or virus in culture
# Format: cell-based, Klebsiella pneumoniae
# settings: carbapenem & polymyxin resistant clinical isolate; MHB, 5 × 10^5 CFU/mL, 18 h at 37 °C
Bridge positions count the residues as written; N and C are the ends. Square brackets hold non-standard residues; d marks the D form. Peptide text beside a SMILES is read from it. * marks the point of attachment. Phe(4-NH2) = Nc1ccc(C[C@H](N)C(=O)O)cc1; Octanoyl = CCCCCCCC(=O)*; Dab = NCC[C@H](N)C(=O)O
property-measured: MIC K. pneumoniae CI 138-16357-20362, PmxR

Item CCCCCCCC(=O)N[C@@H](CCN)C(=O)N[C@H](C(=O)N[C@@H](CCN)C(=O)N[C@H]1CCNC(=O)[C@H]([C@@H](C)O)NC(=O)[C@H](Cc2ccc(N)cc2)NC(=O)[C@H](CCN)NC(=O)[C@H](CC(C)C)NC(=O)[C@@H](Cc2ccccc2)NC(=O)[C@H](CCN)NC1=O)[C@@H](C)O [Compound 20] (Octanoyl-[Dab]T[Dab][Dab][Dab][dF]L[Dab][Phe(4-NH2)]T; lactam 4-C) : provide MIC K. pneumoniae CI 138-16357-20362, PmxR
>32 µg/mL

Item CCCCCCCC(=O)N[C@H](C(=O)N[C@@H](CCN)C(=O)N[C@H]1CCNC(=O)[C@H]([C@@H](C)O)NC(=O)[C@H](CCN)NC(=O)[C@H](CCN)NC(=O)[C@H](CC(C)C)NC(=O)[C@@H](Cc2ccccc2)NC(=O)[C@H](CCN)NC1=O)[C@@H](C)O [Compound 12] (Octanoyl-T[Dab][Dab][Dab][dF]L[Dab][Dab]T; lactam 3-C) : provide MIC K. pneumoniae CI 138-16357-20362, PmxR
>32 µg/mL

Item CCCCCCCC(=O)N[C@@H](CCN)C(=O)N[C@H](C(=O)N[C@@H](CCN)C(=O)N[C@H]1CCNC(=O)[C@H]([C@@H](C)O)NC(=O)[C@H](CCN)NC(=O)[C@H](CCCNC(=N)N)NC(=O)[C@H](CC(C)C)NC(=O)[C@@H](Cc2ccccc2)NC(=O)[C@H](CCN)NC1=O)[C@@H](C)O : provide MIC K. pneumoniae CI 138-16357-20362, PmxR
>32 µg/mL

----------
Catalogue of compounds with associated CC50
# Tested on: HepG2
# settings: CC50 HepG2 (µM)
Bridge positions count the residues as written; N and C are the ends. Square brackets hold non-standard residues; d marks the D form. Peptide text beside a SMILES is read from it. * marks the point of attachment. hSer = N[C@@H](CCO)C(=O)O; Octanoyl = CCCCCCCC(=O)*; Dab = NCC[C@H](N)C(=O)O

{"compound": "CCCCCCCC(=O)N[C@@H](CCN)C(=O)N[C@H](C(=O)N[C@@H](CCN)C(=O)N[C@H]1CCNC(=O)[C@H]([C@@H](C)O)NC(=O)[C@H](CCCNC(=N)N)NC(=O)[C@H](CCN)NC(=O)[C@H](CC(C)C)NC(=O)[C@@H](Cc2ccccc2)NC(=O)[C@H](CCN)NC1=O)[C@@H](C)O [Compound 21] (Octanoyl-[Dab]T[Dab][Dab][Dab][dF]L[Dab]RT; lactam 4-C)", "target-desc": "HepG2", "CC50": "> 300 µM"}

The record that follows has no CC50 shown yet.
Item CCCCCCCC(=O)N[C@@H](CCN)C(=O)N[C@H](C(=O)N[C@@H](CCN)C(=O)N[C@H]1CCNC(=O)[C@H]([C@@H](C)O)NC(=O)[C@H](CCN)NC(=O)[C@H](CCO)NC(=O)[C@H](CC(C)C)NC(=O)[C@@H](Cc2ccccc2)NC(=O)[C@H](CCN)NC1=O)[C@@H](C)O [Compound 24] (Octanoyl-[Dab]T[Dab][Dab][Dab][dF]L[hSer][Dab]T; lactam 4-C) : provide CC50
> 300 µM
